# test.details: compounds altering viability of human ES cells (AID 493140);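 also: cells exposed to compounds for four days before counting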
# applied.conditions: human embryonic stem cell survival screen; stronger effect = higher value
Readings of survival for the listed molecules
# output: bare number, no unit

[[record]]
molecule = "CCC(=O)[C@@]1(C)[C@H](C)C[C@H]2[C@@H]3CCC4=CC(=O)C=C[C@]4(C)[C@H]3[C@@H](O)C[C@@]21C"
readout_number = 5.08


query: Entry under review: CCCCCC(O)/C=C/C=O (centres undefined) . Reported survival?
result: 101

query: Entry under review: Cc1onc(-c2c(F)cccc2Cl)c1C(=O)N[C@@H]1C(=O)N2C(C(=O)O)C(C)(C)S[C@H]12 (some centres undefined) . Reported survival?
result: 15.2

query: Entry under review: CCCCCCCCCCCCC(O)C(=O)O (centres undefined) . Reported survival?
result: 71.7

query: Entry under review: CN1C2CC(OC(=O)[C@H](CO)c3ccccc3)CC1C1OC12 (some centres undefined) . Reported survival?
result: 4.58

query: Entry under review: Cc1cc(=O)c2c(O)c3c(O)cc(O)c4c5c(O)cc(O)c6c(O)c7c(=O)cc(C)c8c1c2c(c34)c(c65)c78 . Reported survival?
result: 52.2

query: Entry under review: CC(C)(C)NC[C@@H](O)COc1cccc2c1CCCC2=O . Reported survival?
result: 6.25

query: Entry under review: CCC(=O)OC1C(C)OC(OC2C(C)OC(O[C@H]3[C@@H](CC=O)C[C@@H](C)[C@@H](O)/C=C/C=C/C[C@@H](C)OC(=O)C[C@@H](OC(=O)CC)[C@@H]3OC)C(O)C2N(C)C)CC1(C)O (some centres undefined) . Reported survival?
result: 16.6

query: Entry under review: CCCCCCCCCCCCCCCC(=O)N[C@H](CN1CCOCC1)[C@H](O)c1ccccc1 . Reported survival?
result: 83.7

---

# experimental.target: L-lactate dehydrogenase (Plasmodium falciparum (isolate CDC / Honduras))
# test.details: PfLDH activity inhibition – cell lysate, 3D7 strain, counter-screen for P. falciparum growth inhibition project (AID 2304);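 also: 0% = vehicle and 100% = reference inhibitor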
# applied.conditions: P. falciparum 3D7 crude extract, LDH APAD/NBT absorbance; at 2 µM; stronger effect = higher value
Readings of inhibition for the listed compounds
Use % as the unit, but write only the number.

[[record]]
compound = "O=C(NC=Nc1cc([N+](=O)[O-])c(-c2cccnc2)n1-c1ccc(O)cc1)c1ccccc1"
readout_number = 6

[[record]]
compound = "O=[N+]([O-])c1ccc(-c2nc3ccc(C4=N[C@H]5CCCC[C@H]5N4)cc3[nH]2)cc1"
readout_number = 3

[[record]]
compound = "O=C(Nc1cccc(-c2nn3ccccc3c2-c2ccnc(Nc3ccc(-c4cc[nH]n4)cc3)n2)c1)c1c(F)cccc1F"
readout_number = 5

[[record]]
compound = "CN(C)c1cc(NN=Cc2cc(Cl)ccc2O)nc(N(C)C)n1"
readout_number = 0

[[record]]
compound = "O=C(NC=Nc1cc([N+](=O)[O-])c(-c2ccncc2)n1-c1ccccc1)c1cccc(O)c1"
readout_number = 4

[[record]]
compound = "C=CC[C@H](C[C@H](O)[C@H](Cc1ccccc1)NC(=O)c1ccc(-n2cccn2)cc1)C(=O)NC1CCCCC1"
readout_number = 1

[[record]]
compound = "Cc1[nH]c2ccccc2c1C=NNc1nc(Nc2ccccc2)nc(Nc2ccccc2)n1"
readout_number = 6

[[record]]
compound = "Oc1cccc(-c2nc(-c3cccc(I)c3)c(-c3ccc(-c4nc(-c5cccc(O)c5)[nH]c4-c4cccc(I)c4)cc3)[nH]2)c1"
readout_number = -2

[[record]]
compound = "COc1cc(C=C(C2=NC(=O)CS2)c2nc3cccnc3n2C)ccc1O"
readout_number = -7

[[record]]
compound = "CC[C@@H]([C@@H](CC(C)C)C(=O)N[C@@H](CCCCNC(=O)OCc1ccccc1)C(=O)Nc1ccccn1)N(O)C=O"
readout_number = -8


query: Entry under review: COc1cc(-c2nc(-c3ccc4c(c3)CCC4=NO)c(-c3ccncc3)[nH]2)ccc1OCCN1CCCCC1 . Reported inhibition?
result: 1

query: Entry under review: CN(C)c1nc(NN=Cc2cc(Cl)ccc2O)nc(Nc2ccc(F)cc2)n1 . Reported inhibition?
result: -3

---

# test.details: drug combination growth inhibition, ovarian cancer – cell-based, oncology-focused library, rucaparib conditional, profiling panel (AID 1508598)
# applied.conditions: patient-derived ovarian cancer cells, CellTiter-Glo viability, 144 h; at 0.000305 µM; OCI-C5x cells; with rucaparib 10 µM; stronger effect = lower value; 100% = cells with rucaparib alone
observable: viability (%)
Use % as the unit, but write only the number.

Use the examples below as a reference point.
[[record]]
compound_smiles = "CC(=O)OCC(=O)[C@]1(O)[C@H](C)C[C@H]2[C@@H]3CCC4=CC(=O)C=C[C@]4(C)[C@]3(F)[C@H](O)C[C@@]21C"
readout_number = 119

[[record]]
compound_smiles = "CO[C@H]1C[C@H]2CC[C@@H](C)[C@@](O)(O2)C(=O)C(=O)N2CCCC[C@H]2C(=O)O[C@H]([C@H](C)C[C@@H]2CC[C@H](OC(=O)C(C)(CO)CO)[C@H](OC)C2)CC(=O)[C@H](C)/C=C(\\C)[C@@H](O)[C@@H](OC)C(=O)[C@H](C)C[C@H](C)/C=C/C=C/C=C/1C"
readout_number = 93.5


Attention now shifts to the item below.
query: Entry under review: CC#C[C@@]1(O)CC[C@H]2[C@@H]3CCC4=CC(=O)CCC4=C3[C@H](c3ccc(N(C)C)cc3)C[C@@]21C . Reported viability?
result: 124

---

# test.details: drug combination growth inhibition, ovarian cancer – cell-based, oncology-focused library, rucaparib conditional, profiling panel (AID 1508598)
# applied.conditions: patient-derived ovarian cancer cells, CellTiter-Glo viability, 144 h; at 5 µM; OCI-C5x cells; without rucaparib; stronger effect = lower value
Readings of viability for the listed compounds
Use % as the unit, but write only the number.

[[record]]
compound_smiles = "O=C(/C=C/c1ccc2ccccc2n1)c1ccncc1"
readout_number = 128

[[record]]
compound_smiles = "N[C@@H]1CCCN(c2c(/C=C3\\SC(=O)NC3=O)cccc2-c2ccccc2)C1"
readout_number = 119

[[record]]
compound_smiles = "O=C(NCC1(c2nc(-c3ccccc3)cs2)CCOCC1)c1cccc(-c2noc(C(F)(F)F)n2)c1"
readout_number = 127

[[record]]
compound_smiles = "CC1(C)O[C@@H]2C[C@H]3[C@@H]4CCC5=CC(=O)C=C[C@]5(C)[C@]4(F)[C@H](O)C[C@]3(C)[C@@]2(C(=O)CO)O1"
readout_number = 99.9

[[record]]
compound_smiles = "CO[C@H]1/C=C\\C=C(\\C)C(=O)NC2=CC(=O)C(NCCN(C)C)=C(C[C@@H](C)C[C@H](OC)[C@H](O)[C@@H](C)/C=C(\\C)[C@@H]1OC(N)=O)C2=O"
readout_number = 4.12


query: Entry under review: C=C1/C(=C/C=C2\CCC[C@@]3(C)[C@H]2CC[C@H]3[C@H](C)/C=C/[C@@H](C)C(C)C)C[C@H](O)C[C@@H]1O . Reported viability?
result: 111

---

# test.details: galactose survival enhancers in mitochondrial complex I cybrids – cell-based, galactose medium, ATP luminescence, primary screen (AID 1645843);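 also: positive z means more ATP and so rescue of galactose-driven cybrid death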
# applied.conditions: complex I mutant cybrid cells, 72 h, stronger effect = higher value
Assign yes (1) to entries whose z-score meets or exceeds -0.4; assign no (0) to the rest.

[[record]]
compound_smiles = "COc1cccc2ccc(-c3nnc4ccccn34)nc12"
category_label = "no (0)"

[[record]]
compound_smiles = "CCNc1nc2c(ncn2[C@H]2C[C@H](O)[C@@H](CO)O2)c(=O)[nH]1"
category_label = "yes (1)"


query: Quick check, z-score >= -0.4? Cc1nsc(NC(=O)N(C)Cc2cn[nH]c2-c2ccc(F)cc2)n1
result: no (0)

query: Quick check, z-score >= -0.4? CN(C)c1ccc(C(=O)O)cc1
result: yes (1)

query: Quick check, z-score >= -0.4? C=C1C[C@@]23CC[C@H]4[C@@](C)(CCC[C@@]4(C)C(=O)O)[C@@H]2CC[C@]1(O)C3
result: yes (1)

---

# test.details: compounds altering viability of human ES cells (AID 493140);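 also: cells exposed to compounds for four days before counting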
# applied.conditions: human embryonic stem cell survival screen; stronger effect = higher value
Readings of survival for the listed compounds
# output: bare number, no unit

[[record]]
compound = "Cc1cc2ncc(-c3ccccc3)nc2cc1C"
readout_number = 100


query: Entry under review: C=CCN1/C(=C\CO)[C@@H]2C[C@@H]3[C@H]1CC[C@@]31c3ccccc3N3/C=C4\C5N(/C=C/2C31)c1ccccc1[C@@]51CC[C@@H]2[C@H]1C[C@H]4/C(=C/CO)N2CC=C (stereo not given in full) . Reported survival?
result: 26.5

query: Entry under review: CNCC(O)c1ccc(OC(=O)C(C)(C)C)c(OC(=O)C(C)(C)C)c1 (stereo not given) . Reported survival?
result: 4.83
